Reference source: paper PMC7531004

COND: cell viability/%
Where a SMILES comes first, the peptide text is derived from it. [ ]: non-standard residue; d: D form. The star is where a group is joined. NHCH2CH2OH = OCCN*; For = O=C*
READOUT TYPE: viability (%)
Give your result in % as a bare value.

Input: Note down viability recorded for CC(C)C[C@@H](NC(=O)[C@H](C)NC(=O)CNC(=O)[C@@H](NC=O)C(C)C)C(=O)N[C@@H](C)C(=O)N[C@@H](C(=O)N[C@H](C(=O)N[C@@H](C(=O)N[C@@H](Cc1c[nH]c2ccccc12)C(=O)N[C@H](CC(C)C)C(=O)N[C@@H](Cc1c[nH]c2ccccc12)C(=O)N[C@@H](C(=O)N[C@@H](Cc1c[nH]c2ccccc12)C(=O)N[C@@H](C(=O)N[C@@H](Cc1c[nH]c2ccccc12)C(=O)NCCO)C(C)C)C(C)C)[C@H](C)O)C(C)C)C(C)C [compound 10400] (For-VGA[dL]A[dV]V[dT]W[dL]W[dV]W[dV]W-NHCH2CH2OH)
Output: 100
